Test: Placebo-controlled ascending multiple-dose study in healthy subjects
Assay type: in vivo, human
Details: human, in vivo, oral, 200 mg, 200 mg BID, first dose, Day 5
Reported Property: Tmax

compound="O=C(O)CC1CC(c2ccccc2)=NO1 (stereo not shown)" test_result="1.5 h"

====

Assay: Placebo-controlled ascending single-dose study in healthy subjects (CAT001)
Format: in vivo, human
Details: human, in vivo, oral, 100 mg, Fasted vs Fed: 100 mg fed; geometric mean
Method: FIG. 21. […] Subjects were administered from 1 mg to 800 mg of VGX1027. A placebo-controlled, ascending single-dose study was performed to evaluate the safety and pharmacokinetics of VGX-1027 in healthy human subjects. […]
Reported Property: Cmax

molecule="O=C(O)CC1CC(c2ccccc2)=NO1 (stereo not shown)" test_result="4600 ng/mL"

====

Assay: Placebo-controlled ascending single-dose study in healthy subjects (CAT001)
Format: in vivo, human
Conditions: human, in vivo, oral, 200 mg, single dose 200 mg, fasted; median
Reported Property: Tmax (h)

compound="O=C(O)CC1CC(c2ccccc2)=NO1 (stereo not shown)" test_result=1.5

====

Assay: Placebo-controlled ascending multiple-dose study in healthy subjects
Format: in vivo, human
Details: human, in vivo, oral, 200 mg, 200 mg BID, first dose, Day 5; Geo Mean; read-out: AUC (AUC to 12 hours)
Reported Property: AUC

compound="O=C(O)CC1CC(c2ccccc2)=NO1 (stereo not shown)" test_result="70400 ng·h/mL"

====

Test: Placebo-controlled ascending single-dose study in healthy subjects (CAT001)
Type: in vivo, human
Details: human, in vivo, oral, 100 mg, single dose 100 mg, fasted; geometric mean; read-out: AUC
Reported Property: AUC (ng·h/mL)

compound="O=C(O)CC1CC(c2ccccc2)=NO1 (stereo not shown)" test_result=74600

====

Experiment: Placebo-controlled ascending single-dose study in healthy subjects (CAT001)
Type: in vivo, human
Conditions: human, in vivo, oral, 800 mg, single dose 800 mg, fasted; median
Reported Property: Tmax (h)

compound="O=C(O)CC1CC(c2ccccc2)=NO1 (stereo not shown)" output_unit=h test_result=2

====

Assay: Placebo-controlled ascending multiple-dose study in healthy subjects
Assay type: in vivo, human
Details: human, in vivo, oral, 200 mg, Multiple Dose (Day 5) 200 mg; Geo Mean; read-out: AUC (0-24)
Reported Property: AUC(0-t)

molecule="O=C(O)CC1CC(c2ccccc2)=NO1 (stereo not shown) [VGX-1027]" test_result="65700 ng·h/mL"

====

Experiment: Placebo-controlled ascending multiple-dose study in healthy subjects
Assay type: in vivo, human
Details: human, in vivo, oral, 200 mg, 200 mg BID, first dose, Day 1; Geo Mean
Reported Property: Cmax

compound="O=C(O)CC1CC(c2ccccc2)=NO1 (stereo not shown) [VGX-1027]" test_result="13100 ng/mL"

====

Test: Placebo-controlled ascending single-dose study in healthy subjects (CAT001)
Format: in vivo, human
Conditions: human, in vivo, oral, 200 mg, Single Dose (CAT001) 200 mg; Geo Mean
Reported Property: Cmax (ng/mL)

compound="O=C(O)CC1CC(c2ccccc2)=NO1 (stereo not shown)" output_unit=ng/mL test_result=15700

====

Experiment: Placebo-controlled ascending single-dose study in healthy subjects (CAT001)
Format: in vivo, human
Conditions: human, in vivo, oral, 100 mg, Fasted vs Fed: 100 mg fasted; median
Reported Property: Tmax (h)

compound="O=C(O)CC1CC(c2ccccc2)=NO1 (stereo not shown) [VGX-1027]" output_unit=h test_result=1.25

====

Experiment: Placebo-controlled ascending single-dose study in healthy subjects (CAT001)
Type: in vivo, human
Details: human, in vivo, oral, 200 mg, Single Dose (CAT001) 200 mg
Reported Property: Tmax

compound="O=C(O)CC1CC(c2ccccc2)=NO1 (stereo not shown) [VGX-1027]" reported_property=Tmax test_result="1.5 h"

====

Test: Placebo-controlled ascending single-dose study in healthy subjects (CAT001)
Format: in vivo, human
Conditions: human, in vivo, oral, 100 mg, Fasted vs Fed: 100 mg fed; geometric mean
Reported Property: half-life (h)

compound="O=C(O)CC1CC(c2ccccc2)=NO1 (stereo not shown) [VGX-1027]" output_unit=h test_result=6.3

====

Assay: Plasma pharmacokinetics after intraperitoneal administration
Type: in vivo
Conditions: mouse, ip, after 6 hours post injection, mice, i.p. 20 mg/kg, read-out: plasma drug concentration
Reported Property: concentration at 6 h

compound="O=C(O)CC1CC(c2ccccc2)=NO1 (stereo not shown)" test_result="< 10000 ng/mL"

====

Assay: Placebo-controlled ascending single-dose study in healthy subjects (CAT001)
Format: in vivo, human
Details: human, in vivo, oral; Single Dose (CAT001) 200 mg; Geo Mean; read-out: AUC (0-24)
Reported Property: AUC(0-t) (ng·h/mL)

molecule="O=C(O)CC1CC(c2ccccc2)=NO1 (stereo not shown)" output_unit=ng·h/mL test_result=98400

====

Experiment: Stability in human liver S9 fractions
Format: in vitro ADME
Details: with phase 1 and 2 cofactors, read-out: t1/2 in human liver S9 fractions
Reported Property: half-life

molecule="O=C(O)CC1CC(c2ccccc2)=NO1 (stereo not shown)" test_result="> 1.5 h"

====

Assay: Placebo-controlled ascending single-dose study in healthy subjects (CAT001)
Type: in vivo, human
Conditions: human, in vivo, oral, 100 mg, single dose 100 mg, fasted; geometric mean
Reported Property: Cmax (ng/mL)

compound="O=C(O)CC1CC(c2ccccc2)=NO1 (stereo not shown) [VGX-1027]" test_result=9100

====

Test: Placebo-controlled ascending single-dose study in healthy subjects (CAT001)
Format: in vivo, human
Conditions: human, in vivo, oral, 10 mg, single dose 10 mg, fasted; geometric mean
Description: FIG. 21. […] Subjects were administered from 1 mg to 800 mg of VGX1027. A placebo-controlled, ascending single-dose study was performed to evaluate the safety and pharmacokinetics of VGX-1027 in healthy human subjects. […]
Reported Property: half-life

compound="O=C(O)CC1CC(c2ccccc2)=NO1 (stereo not shown)" reported_property=half-life test_result="4.9 h"

====

Experiment: Placebo-controlled ascending single-dose study in healthy subjects (CAT001)
Type: in vivo, human
Settings: human, in vivo, oral, 800 mg, single dose 800 mg, fasted; geometric mean; read-out: AUC
Reported Property: AUC (µg·h/mL)

compound="O=C(O)CC1CC(c2ccccc2)=NO1 (stereo not shown)" test_result=330

====

Assay: Placebo-controlled ascending multiple-dose study in healthy subjects
Type: in vivo, human
Settings: human, in vivo, oral, 100 mg, Multiple Dose (Day 5) 100 mg
Reported Property: Tmax (h)

compound="O=C(O)CC1CC(c2ccccc2)=NO1 (stereo not shown) [VGX-1027]" reported_property=Tmax output_unit=h test_result=1.5

====

Assay: Placebo-controlled ascending single-dose study in healthy subjects (CAT001)
Assay type: in vivo, human
Details: human, in vivo, oral, 800 mg, single dose 800 mg, fasted; geometric mean
Reported Property: half-life (h)

compound="O=C(O)CC1CC(c2ccccc2)=NO1 (stereo not shown)" test_result=7.9

====

Test: Placebo-controlled ascending single-dose study in healthy subjects (CAT001)
Assay type: in vivo, human
Settings: human, in vivo, oral, 200 mg, single dose 200 mg, fasted; geometric mean
Reported Property: Cmax (ng/mL)

compound="O=C(O)CC1CC(c2ccccc2)=NO1 (stereo not shown)" output_unit=ng/mL test_result=15700

====

Assay: Placebo-controlled ascending single-dose study in healthy subjects (CAT001)
Assay type: in vivo, human
Conditions: human, in vivo, oral, 100 mg, single dose 100 mg, fasted; geometric mean
Reported Property: half-life (h)

compound="O=C(O)CC1CC(c2ccccc2)=NO1 (stereo not shown) [VGX-1027]" test_result=8.8

====

Test: Placebo-controlled ascending single-dose study in healthy subjects (CAT001)
Format: in vivo, human
Details: human, in vivo, oral, 200 mg, single dose 200 mg, fasted; geometric mean
Reported Property: half-life (min)

molecule="O=C(O)CC1CC(c2ccccc2)=NO1 (stereo not shown)" test_result=462

====

Assay: Placebo-controlled ascending single-dose study in healthy subjects (CAT001)
Type: in vivo, human
Conditions: human, in vivo, oral, 100 mg, Single Dose (CAT001) 100 mg
Reported Property: Tmax (h)

compound="O=C(O)CC1CC(c2ccccc2)=NO1 (stereo not shown)" output_unit=h test_result=1.8

====

Assay: Placebo-controlled ascending multiple-dose study in healthy subjects
Format: in vivo, human
Conditions: human, in vivo, oral, 100 mg, Multiple Dose (Day 1) 100 mg; Geo Mean
Reported Property: Cmax (ng/mL)

compound="O=C(O)CC1CC(c2ccccc2)=NO1 (stereo not shown) [VGX-1027]" test_result=7570

====

Test: Placebo-controlled ascending single-dose study in healthy subjects (CAT001)
Assay type: in vivo, human
Conditions: human, in vivo, oral, 100 mg, Fasted vs Fed: 100 mg fasted; geometric mean; read-out: AUC
Reported Property: AUC (ng·h/mL)

compound="O=C(O)CC1CC(c2ccccc2)=NO1 (stereo not shown) [VGX-1027]" output_unit=ng·h/mL test_result=37800
